B1: library; numbered along this chain (parent)
chain: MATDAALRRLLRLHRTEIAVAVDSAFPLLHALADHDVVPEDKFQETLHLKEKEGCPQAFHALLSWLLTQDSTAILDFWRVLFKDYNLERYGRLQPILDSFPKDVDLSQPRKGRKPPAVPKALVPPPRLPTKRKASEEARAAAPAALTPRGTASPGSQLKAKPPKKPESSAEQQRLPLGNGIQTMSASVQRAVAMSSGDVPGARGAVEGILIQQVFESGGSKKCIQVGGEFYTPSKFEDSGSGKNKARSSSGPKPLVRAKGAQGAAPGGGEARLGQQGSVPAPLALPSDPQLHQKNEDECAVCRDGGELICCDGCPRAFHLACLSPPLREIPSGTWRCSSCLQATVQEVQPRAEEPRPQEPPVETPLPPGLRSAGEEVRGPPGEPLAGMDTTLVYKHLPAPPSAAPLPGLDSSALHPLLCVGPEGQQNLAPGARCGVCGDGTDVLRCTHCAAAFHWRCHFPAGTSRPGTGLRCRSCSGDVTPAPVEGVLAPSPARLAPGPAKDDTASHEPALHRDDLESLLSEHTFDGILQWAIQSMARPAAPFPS

variants of: B1; assay: AIRE transcriptional activation functional score (insulin promoter-GFP; nonsense median 0, synonymous median 1) (normalised score); higher = higher AIRE activity (more reporter activation); conditions: with insulin promoter-GFP reporter in HEK293
Below, each entry is listed with its recorded AIRE transcriptional activation functional score.
Parameter: AIRE transcriptional activation functional score

Mut: M388K
Result: 1.05

Mut: T391M
Result: 1.02

Mut: A403S
Result: 0.725

Mut: K114T
Result: 1.19

Mut: P400S
Result: 0.846

Mut: K164D
Result: -0.844

Mut: P143G
Result: 0.958

Mut: L63C
Result: -0.0612

Mut: A321E
Result: 0.854

Mut: K120A
Result: 0.814

Mut: S153N
Result: 0.697

Mut: H48P
Result: -0.897

Mut: P422D
Result: 1.69

Mut: G486W
Result: 1.49

Mut: K165N
Result: 0.909

Mut: F26K
Result: -0.369

Mut: E53A
Result: 1.12

Mut: L67I
Result: 0.391

Mut: L397R
Result: 0.938

Mut: E136H
Result: 1.15

Mut: A317W
Result: 1.53

Mut: D4G
Result: 0.166

Mut: A537E
Result: 0.915

Mut: F26W
Result: 1.21

Mut: A281M
Result: 0.425

Mut: R336L
Result: 0.658

Mut: H30N
Result: 0.384

Mut: E353T
Result: 1.19

Mut: Q426Y
Result: 1.54

Mut: P331R
Result: 1.41

Mut: T68G
Result: 0.848

Mut: D70A
Result: -0.203

Mut: R356T
Result: 0.752

Mut: P499E
Result: 0.508

Mut: G305N
Result: 1.16

Mut: A152M
Result: 1.86

Mut: G306N
Result: 1.18

Mut: A500S
Result: 1.17

Mut: A145H
Result: 1.37

Mut: C337K
Result: 1.28

Mut: D34A
Result: -0.1

Mut: D526P
Result: -0.403

Mut: Q213P
Result: 0.531

Mut: S169L
Result: 1.7

Mut: A317V
Result: 0.416

Mut: T364P
Result: 0.694

Mut: W531E
Result: -0.39

Mut: P466N
Result: 0.444

Mut: A170E
Result: 0.67

Mut: V214F
Result: 1.01

Mut: R8K
Result: 0.485

Mut: D389S
Result: 1.24

Mut: G379S
Result: 1.37

Mut: D103Q
Result: 0.412

Mut: R113S
Result: 1.02

Mut: A413M
Result: 1.02

Mut: S332H
Result: 0.932

Mut: R110W
Result: 1.5

Mut: G274Q
Result: 0.131

Mut: R247M
Result: 1.42

Mut: P492R
Result: 0.779

Mut: V301Q
Result: 1.08

Mut: L406R
Result: 0.985

Mut: S185E
Result: 0.209

Mut: L520Q
Result: 0.36

Mut: N427Q
Result: 0.539

Mut: F318E
Result: 1.34

Mut: V214A
Result: 0.717

Mut: T147Y
Result: 0.76

Mut: R328I
Result: 1.17

Mut: D84I
Result: -0.4

Mut: E307H
Result: 1.11

Mut: P381V
Result: 1.15

Mut: E354A
Result: 0.949

Mut: P95M
Result: 1.41

Mut: E329P
Result: 0.962

Mut: D23R
Result: -0.0795

Mut: A450N
Result: 1.35

Mut: P416S
Result: 1.09

Mut: S491D
Result: 0.749

Mut: S241G
Result: 0.897

Mut: I309L
Result: 0.505

Mut: R110I
Result: 1.21

Mut: E229Y
Result: -0.363

Mut: M184I
Result: 0.983

Mut: E216S
Result: 1.33

Mut: T441K
Result: 1.31

Mut: K111D
Result: -0.0433

Mut: R328L
Result: 1.08

Mut: S249Y
Result: 0.973

Mut: P315D
Result: 1.08
